test_system: HLA-A*02:02
run_description: IEDB peptide-MHC binding, cellular MHC/competitive/fluorescence; bounds were set here for any values at or beyond the usual limits of such assays
cond: source organism: SARS-CoV1
observed_property: IC50

| biosequence | observed_property | assay_result |
| --- | --- | --- |
| YLVQQESSFV | IC50 | 12.7 µM |

----------
test_system: HLA-A*02:03
run_description: IEDB peptide-MHC binding, purified MHC/competitive/radioactivity; bounds were set here for any values at or beyond the usual limits of such assays
cond: source organism: Vaccinia virus WR
pIC50: −log10 of the molar value.
# Lookup of reported pIC50 keyed by entry

| biosequence | pIC50 |
| --- | --- |
| RLYDYFTRVT | 6.26 |
| IAGGVCYYL | 5.78 |
| FVSTMPVET | 6.41 |
| SINNQLMYDI | 6.32 |
| KLYGYASLT | 7.66 |
| KASTISWMM | 6.25 |
| SIISLFYTFA | 7.55 |
| LVKDESIQL | 6.19 |
| TVLTSVDIET | 6.04 |
| KLLYAAEMV | 7.27 |
| SLETVKMGA | 6.26 |
| RIVVALSSLV | 8.14 |
| TMSIYIAVA | 7.39 |
| EVNDTHYTV | 6.94 |
| PASKKESVI | 5.75 |
| VMYAFTTPL | 8.89 |
| SMMVILPDKI | 7.72 |
| VLALYSPPL | 9.39 |
| LMELPVKTDI | 6.01 |
| LLKETIQKDI | 6.11 |
| GLDERFVEEL | 5.92 |

----------
test_system: HLA-A*68:02
run_description: IEDB peptide-MHC binding, cellular MHC/competitive/fluorescence; bounds were set here for any values at or beyond the usual limits of such assays
cond: source organism: Vaccinia virus WR
Classify: Criterion met when IC50 is strictly less than 10 µM; Criterion not met when IC50 is not.

| biosequence | test_system | assigned_class |
| --- | --- | --- |
| QQLCTMERT | HLA-A*68:02 | Criterion not met |
| SIGFEARIV | HLA-A*68:02 | Criterion not met |
| FIDRGSIKI | HLA-A*68:02 | Criterion not met |
| ITETIPIGM | HLA-A*68:02 | Criterion met |
| SVQLSNNKYV | HLA-A*68:02 | Criterion not met |
| PLHIVCSKTV | HLA-A*68:02 | Criterion met |
| IVDKFGKNHI | HLA-A*68:02 | Criterion not met |
| QILDNAAKYV | HLA-A*68:02 | Criterion not met |
| ELVMDKNHAI | HLA-A*68:02 | Criterion not met |
| PTPKKMNIVT | HLA-A*68:02 | Criterion not met |
| ALCKVTVPT | HLA-A*68:02 | Criterion not met |
| SILSLETVKM | HLA-A*68:02 | Criterion not met |
| PANINDKQIM | HLA-A*68:02 | Criterion not met |
| NIDSIMSMM | HLA-A*68:02 | Criterion not met |
| KLLNMRDLIV | HLA-A*68:02 | Criterion not met |
| QQNNSFIIST | HLA-A*68:02 | Criterion met |
| DMICCDSRIV | HLA-A*68:02 | Criterion not met |
| PTLFGRGVI | HLA-A*68:02 | Criterion not met |
| LMLHNPTSET | HLA-A*68:02 | Criterion not met |
| HAKYMVTDKT | HLA-A*68:02 | Criterion not met |
